# key: entry, value: pIC50
- subjectOfTest: full length mouse TREX1 (Mus musculus)
- Construct: N-terminally His-Tev tagged full length mouse TREX1; made in house; host or cells: E. coli
- Sequence (Q91XB0 whole entry): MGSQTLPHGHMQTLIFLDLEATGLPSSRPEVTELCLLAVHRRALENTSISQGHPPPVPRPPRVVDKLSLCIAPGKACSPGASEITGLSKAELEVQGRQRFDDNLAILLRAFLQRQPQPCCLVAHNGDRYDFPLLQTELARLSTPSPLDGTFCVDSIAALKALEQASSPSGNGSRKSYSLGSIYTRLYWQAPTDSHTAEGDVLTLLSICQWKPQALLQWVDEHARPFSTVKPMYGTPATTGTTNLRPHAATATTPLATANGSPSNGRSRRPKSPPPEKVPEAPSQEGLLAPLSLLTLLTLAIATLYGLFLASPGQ
- assayMethodText: mTREX1 Biochemical Assay (fluorescence, dsDNA substrate degradation)
- assayConditions: biochemical, read-out: mTREX1 IC50
pIC50: −log10 of the molar value.

Solved cases (8 shown):
INSERT INTO results (compound, metric, valueobserved) VALUES
  ('COCCn1ncc(C(c2cc(F)ccc2Cl)C(C)c2nc(C(=O)Nc3cnoc3)c(O)c(=O)n2C)c1C (single isomer, unassigned) [Example 108 D1E1]', 'pIC50', '< 8.00'),
  ('Cc1cnc(C)c(C(c2ccccc2C#N)C(C)c2nc(C(=O)Nc3cnoc3)c(O)c(=O)n2C)n1 (single isomer, unassigned) [Example 82 D2E1]', 'pIC50', '< 8.00'),
  ('Cc1nn(C)cc1C(c1cc(F)ccc1C#N)C(c1nc(C(=O)Nc2cnoc2)c(O)c(=O)n1C)C(F)(F)F (single isomer, unassigned) [Example 42 D1E1]', 'pIC50', '< 8.00'),
  ('Cc1cc(C(c2cc(F)ccc2C#N)C(C)c2nc(C(=O)Nc3cnoc3)c(O)c(=O)n2C)nn1C (single isomer, unassigned) [Example 112 D1E2]', 'pIC50', '< 8.00'),
  ('COCCCn1cc(C(c2ccccc2C#N)C(C)c2nc(C(=O)Nc3cnoc3)c(O)c(=O)n2C)cn1 (single isomer, unassigned) [Example 24 D1E2]', 'pIC50', '< 8.00'),
  ('Cc1cnc(C(c2ccccc2C#N)C(C)c2nc(C(=O)Nc3cnoc3)c(O)c(=O)n2C)c(C)n1 (single isomer, unassigned) [Example 123 D1E2]', 'pIC50', '< 8.00'),
  ('Cc1nn(C)c(C)c1C(c1cc(F)ccc1C#N)C(C)c1nc(C(=O)Nc2cnoc2)c(O)c(=O)n1C (single isomer, unassigned) [Example 109 D1E1]', 'pIC50', '8.00 to 9.00'),
  ('Cc1cnc(C)c(C(c2cc(F)ccc2Cl)C(C)c2nc(C(=O)Nc3cnoc3)c(O)c(=O)n2C)n1 (single isomer, unassigned) [Example 121 D2E1]', 'pIC50', '< 8.00');

// C[C@H](c1nc(C(=O)Nc2cnoc2)c(O)c(=O)n1C)[C@@H](c1cc(F)ccc1C#N)c1cn(C)nc1C#N [Example 59 D1E2] : pIC50 value = > 9.00

// CC(c1nc(C(=O)Nc2cnoc2)c(O)c(=O)n1C)C(c1cnn(C2COC2)c1)c1ccccc1C#N (single isomer, unassigned) [Example 106 D1E2] : pIC50 value = < 8.00

// CC(c1nc(C(=O)Nc2cnoc2)c(O)c(=O)n1C)C(c1cnccn1)c1ccccc1C#N (single isomer, unassigned) [Example 66 D2E2] : pIC50 value = < 8.00

// CC(c1nc(C(=O)Nc2cnoc2)c(O)c(=O)n1C)C(c1ccccc1Cl)n1cc(C(F)(F)F)cn1 (single isomer, unassigned) [Example 139 D1E1] : pIC50 value = 8.00 to 9.00

###

- subjectOfTest: hTREX1 (Homo sapiens)
- Sequence (Q9NSU2 1-314): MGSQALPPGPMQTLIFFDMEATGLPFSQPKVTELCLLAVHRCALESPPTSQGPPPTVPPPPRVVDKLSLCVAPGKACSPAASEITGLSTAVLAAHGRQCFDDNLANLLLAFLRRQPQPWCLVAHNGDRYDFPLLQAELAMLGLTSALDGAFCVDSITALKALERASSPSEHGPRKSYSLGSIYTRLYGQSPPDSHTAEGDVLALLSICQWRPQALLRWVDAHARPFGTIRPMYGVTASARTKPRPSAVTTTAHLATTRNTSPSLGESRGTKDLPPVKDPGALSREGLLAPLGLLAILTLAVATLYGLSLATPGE
- assayMethodText: hTREX1 HCT116 Cell Assay (HCT116 dual cells, Lucia luciferase reporter of Type I interferon induction)
- assayConditions: TREX1i 4 h before pBR322/BstNI transfection, read after 48 h
# key: entry, value: IC50

INSERT INTO assay_data (molecule, valueobserved) VALUES
  ('Cc1cnc(C(c2cc(F)ccc2Cl)C(C)c2nc(C(=O)Nc3cnoc3)c(O)c(=O)n2C)cn1 (single isomer, unassigned) [Example 117 D2E1]', '> 0.1 µM');

// CC(c1nc(C(=O)Nc2cnoc2)c(O)c(=O)n1C)C(c1ccccc1C#N)c1cn(C)nc1F (single isomer, unassigned) [Example 91 D1E2] : IC50 value = > 0.1 µM

// Cc1ccn(C(c2ccccc2C#N)C(C)c2nc(C(=O)Nc3cnoc3)c(O)c(=O)n2C)n1 (single isomer, unassigned) : IC50 value = 0.01 to 0.1 µM

###

- subjectOfTest: hTREX1 (Homo sapiens)
- assayMethodText: hTREX1 HCT116 Cell Assay (HCT116 dual cells, Lucia luciferase reporter of Type I interferon induction)
- assayConditions: TREX1i 4 h before pBR322/BstNI transfection, read after 48 h
# key: entry, value: IC50

Solved cases (5 shown):
INSERT INTO results (compound, subjectoftest, metric, valueobserved) VALUES
  ('CC(c1nc(C(=O)Nc2cnoc2)c(O)c(=O)n1C)C(c1cocn1)c1ccccc1C#N (single isomer, unassigned) [Example 50 D1E1]', 'hTREX1 (Homo sapiens)', 'IC50', '> 100 nM'),
  ('Cc1n[nH]c(C)c1C(c1ccccc1C#N)C(C)c1nc(C(=O)Nc2cnoc2)c(O)c(=O)n1C (single isomer, unassigned) [Example 95 D1E1]', 'hTREX1 (Homo sapiens)', 'IC50', '< 10 nM'),
  ('CC(c1nc(C(=O)Nc2cnoc2)c(O)c(=O)n1C)C(c1cnn(C(F)F)c1)c1ccccc1C#N (single isomer, unassigned) [Example 38 D1E1]', 'hTREX1 (Homo sapiens)', 'IC50', '< 10 nM'),
  ('CC(c1nc(C(=O)Nc2cnoc2)c(O)c(=O)n1C)C(c1cn[nH]c1)c1ccccc1C#N (single isomer, unassigned) [Example 12 D2E1]', 'hTREX1 (Homo sapiens)', 'IC50', '> 100 nM'),
  ('COCCn1cc(C(c2cc(F)ccc2C#N)C(C)c2nc(C(=O)Nc3cnoc3)c(O)c(=O)n2C)cn1 (single isomer, unassigned) [Example 18 D1E2]', 'hTREX1 (Homo sapiens)', 'IC50', '> 100 nM');

// COCCn1cc(C(c2ccccc2C#N)C(C)c2nc(C(=O)Nc3cnoc3)c(O)c(=O)n2C)cn1 (single isomer, unassigned) [Example 9 D2E1] : IC50 value = > 100 nM

// CC(c1nc(C(=O)Nc2cnoc2)c(O)c(=O)n1C)C(c1cnn(CC2COC2)c1)c1ccccc1Cl (single isomer, unassigned) [Example 88 D1E1] : IC50 value = > 100 nM

// CC(c1nc(C(=O)Nc2cnoc2)c(O)c(=O)n1C)C(c1cnn(C)c1)c1ccccc1Cl (single isomer, unassigned) [Example 77 D2E1] : IC50 value = > 100 nM

// Cc1ncc(C(c2ccccc2C#N)C(C)c2nc(C(=O)Nc3cnoc3)c(O)c(=O)n2C)nc1C (single isomer, unassigned) [Example 81 D1E2] : IC50 value = < 10 nM

// CC(c1nc(C(=O)Nc2cnoc2)c(O)c(=O)n1C)C(c1cnn(C)c1)c1ccccc1C#N (single isomer, unassigned) [Example 2 D1E2] : IC50 value = > 100 nM

// CC(c1nc(C(=O)Nc2cnoc2)c(O)c(=O)n1C)C(c1cnn(C)c1)c1ccc(F)cc1C#N (single isomer, unassigned) [Example 15 D1E1] : IC50 value = < 10 nM

// Cc1ccnn1C(c1ccccc1C#N)C(C)c1nc(C(=O)Nc2cnoc2)c(O)c(=O)n1C (single isomer, unassigned) [Example 138 D1E1] : IC50 value = 10 to 100 nM

###

- subjectOfTest: full length human TREX1 (Homo sapiens)
- Construct: N-terminally His-Tev tagged full length human TREX1; made in house; host or cells: E. coli
- assayMethodText: hTREX1 Biochemical Assay (fluorescence, dsDNA substrate degradation)
- assayConditions: biochemical, read-out: hTREX1 IC50
- Experimental: Degradation of the dsDNA liberates free fluorophore to produce a fluorescent signal. Specifically, 7.5 μL of N-terminally His-Tev tagged full length human TREX1 (expressed in E. coli and purified in house) in reaction buffer (50 mM Tris, 150 mM NaCl, 2 mM DTT, 0.1 mg/mL BSA, 0.01% (w/v) Tween-20, 5 mM MgCl2, pH 7.4) was added to a 384-well Black ProxiPlate Plus (PerkinElmer) which already contained compound (150 nL) at varying concentrations as a 10 point dose-response in DMSO. […]
# key: entry, value: IC50

INSERT INTO measurements (molecule, valueobserved) VALUES
  ('Cc1cncc(C(c2ccccc2C#N)C(C)c2nc(C(=O)Nc3cnoc3)c(O)c(=O)n2C)n1 (single isomer, unassigned) [Example 53 D1E2]', '< 1 nM'),
  ('CC(c1nc(C(=O)Nc2cnoc2)c(O)c(=O)n1C)C(c1ccccc1C#N)c1nnnn1C (single isomer, unassigned) [Example 131 D1E1]', '> 10 nM'),
  ('CC(c1nc(C(=O)Nc2cnoc2)c(O)c(=O)n1C)C(c1cnn(CCO)c1)c1ccccc1C#N (single isomer, unassigned) [Example 35 D2E1]', '1 to 10 nM'),
  ('CC(c1nc(C(=O)Nc2cnoc2)c(O)c(=O)n1C)C(c1cnn(C)c1)c1ccc(F)cc1C#N (single isomer, unassigned) [Example 15 D1E1]', '< 1 nM'),
  ('CC(c1nc(C(=O)Nc2cnoc2)c(O)c(=O)n1C)C(c1cnn(C)c1)c1ccc(C(F)(F)F)cc1C#N (single isomer, unassigned) [Example 30 D2E2]', '> 10 nM');

// CC(c1nc(C(=O)Nc2cnoc2)c(O)c(=O)n1C)C(c1cnn(C)c1)c1ccccc1C#N (single isomer, unassigned) [Example 2 D2E1] : IC50 value = > 10 nM
